All figures here come from patent US9096593B2.

measured on: BCR-FMS/BaF3 cells (Homo sapiens, UniProt P07333)
Sequence (P07333 20-972 limits assumed, change not shown): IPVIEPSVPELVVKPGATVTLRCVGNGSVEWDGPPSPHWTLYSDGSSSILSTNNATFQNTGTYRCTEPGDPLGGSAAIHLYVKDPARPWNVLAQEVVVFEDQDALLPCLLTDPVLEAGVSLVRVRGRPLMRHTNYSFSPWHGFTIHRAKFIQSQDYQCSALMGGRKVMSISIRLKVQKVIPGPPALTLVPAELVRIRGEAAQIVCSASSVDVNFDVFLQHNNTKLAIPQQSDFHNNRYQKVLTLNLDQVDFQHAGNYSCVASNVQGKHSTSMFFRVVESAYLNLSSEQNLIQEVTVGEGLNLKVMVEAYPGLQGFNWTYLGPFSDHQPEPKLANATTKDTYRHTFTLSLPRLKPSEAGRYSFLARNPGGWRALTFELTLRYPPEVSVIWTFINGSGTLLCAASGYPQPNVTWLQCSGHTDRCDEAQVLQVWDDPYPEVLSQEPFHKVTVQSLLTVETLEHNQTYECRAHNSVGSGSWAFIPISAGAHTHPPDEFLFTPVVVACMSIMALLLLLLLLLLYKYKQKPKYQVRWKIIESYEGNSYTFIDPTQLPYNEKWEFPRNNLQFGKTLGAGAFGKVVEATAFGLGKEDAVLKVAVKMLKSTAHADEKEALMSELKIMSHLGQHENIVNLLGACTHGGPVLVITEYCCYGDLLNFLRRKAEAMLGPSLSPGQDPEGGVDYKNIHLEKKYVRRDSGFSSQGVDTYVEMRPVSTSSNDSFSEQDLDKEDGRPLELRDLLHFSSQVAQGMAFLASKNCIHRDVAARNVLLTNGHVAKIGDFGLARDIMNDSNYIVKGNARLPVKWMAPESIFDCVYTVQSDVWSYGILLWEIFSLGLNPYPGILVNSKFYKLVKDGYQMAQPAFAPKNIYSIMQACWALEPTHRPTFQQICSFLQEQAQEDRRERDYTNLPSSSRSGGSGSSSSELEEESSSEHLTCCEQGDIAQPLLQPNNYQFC
experiment description: BCR-FMS/BaF3 cell proliferation assay (ATPlite)
Assay type: cell-based
condition description: Kit IC50/Fms IC50, BCR-KIT/BaF3 vs BCR-FMS/BaF3 cells
# BCR/BaF3 selectivity (Kit IC50/Fms IC50) per entry

Answered examples (2):
item smiles: COc1ncc(CNc2ccc(Cc3c[nH]c4ncc(Cl)cc34)c(F)n2)cc1F
BCR/BaF3 selectivity (Kit IC50/Fms IC50): >20
//
item smiles: COc1ccc(CNc2ncc(Cc3c[nH]c4ncc(Cl)cc34)cn2)cn1
BCR/BaF3 selectivity (Kit IC50/Fms IC50): >20

Consider the record given below.
Data request: Please report the recorded BCR/BaF3 selectivity (Kit IC50/Fms IC50) for "Fc1cc(Cc2c[nH]c3ncc(Cl)cc23)cnc1NCc1ccc(C(F)(F)F)nc1" .
Data returned: <20
